B1: library; numbered along this chain (parent)
chain: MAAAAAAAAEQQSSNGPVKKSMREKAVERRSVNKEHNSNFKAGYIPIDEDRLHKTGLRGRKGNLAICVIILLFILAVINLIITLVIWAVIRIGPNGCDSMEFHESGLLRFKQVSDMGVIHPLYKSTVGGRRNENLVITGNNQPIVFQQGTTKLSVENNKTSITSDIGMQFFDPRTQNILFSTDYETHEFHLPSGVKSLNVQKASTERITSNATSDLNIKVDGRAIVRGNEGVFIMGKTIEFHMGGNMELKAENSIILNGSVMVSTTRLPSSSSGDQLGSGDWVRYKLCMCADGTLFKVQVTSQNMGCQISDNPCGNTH

# Variants of: B1
# protocol notes: SGCB cell-surface expression functional score (HA stain, bin4 vs bin1, normalised to synonymous) (log10 ratio); higher = more cell-surface SGCB (functional)
observable: SGCB cell-surface expression functional score (log10)
Form rule: numeric answer, no unit written next to it.

# input Look up SGCB cell-surface expression functional score (log10) for this variant: A7P
# output 0.29

Reference for the values: the supplement of paper PMC10266784
